Listing: cytotoxicity at 70.5 h of selected molecules
Test: Human HepG2 cell viability assay in 384 well format
Type: toxicity, cell-based
Parameters: dose 125 nL, time 70.5 hour; concentration not given beside the values
Conditions: HepG2 cells, read-out: Inhibition
TEST_READOUT: cytotoxicity at 70.5 h (%)

{"MOLECULE": "Cc1ccc2ncn(C(C)Cn3cccn3)c(=O)c2c1 (centres undefined)", "UNITS_TEXT": "%", "OBSERVED_RESULT": -5.52}
{"MOLECULE": "CCN(Cc1ccncc1)C(=O)c1cn(CCCc2ccccc2)nn1", "UNITS_TEXT": "%", "OBSERVED_RESULT": -12.5}
{"MOLECULE": "Cc1noc(C)c1CN(C)CC1CCCN1c1cccnn1 (centres undefined)", "UNITS_TEXT": "%", "OBSERVED_RESULT": -7.19}
{"MOLECULE": "CN(Cc1ccccc1-n1cccn1)C[C@@H]1CCCN2CCCC[C@H]12", "UNITS_TEXT": "%", "OBSERVED_RESULT": -8.12}
{"MOLECULE": "O=C(COc1cccnc1)N1CCCC(n2cccn2)C1 (centres undefined)", "UNITS_TEXT": "%", "OBSERVED_RESULT": -2.58}
{"MOLECULE": "COC1CCCOC12CCN(C(=O)NCc1ccco1)CC2 (centres undefined)", "UNITS_TEXT": "%", "OBSERVED_RESULT": -1.17}
{"MOLECULE": "Cc1nc(CN2CCC3(CCCN(Cc4ccncc4)C3)C2=O)cs1 (centres undefined)", "UNITS_TEXT": "%", "OBSERVED_RESULT": -11.1}
{"MOLECULE": "CC(C)=CCN1C[C@@H](C(=O)O)C[C@H](C(=O)Nc2ccc(C)nc2)C1", "UNITS_TEXT": "%", "OBSERVED_RESULT": -8.07}
{"MOLECULE": "O=C(C1CCOC1)N1CCN(Cc2ccncc2)c2ncccc2C1 (centres undefined)", "UNITS_TEXT": "%", "OBSERVED_RESULT": -9.12}
{"MOLECULE": "CN(C)CCNc1cc(-c2ccc[nH]c2=O)c2cc[nH]c2n1", "UNITS_TEXT": "%", "OBSERVED_RESULT": -5.94}
{"MOLECULE": "CC(C)[C@H](NC(=O)NC1CCS(=O)(=O)C1)C(=O)Nc1cccnc1 (some centres undefined)", "UNITS_TEXT": "%", "OBSERVED_RESULT": 9.45}
{"MOLECULE": "COC1CCCN(C(=O)Nc2nc(C)n(C)n2)C1 (centres undefined)", "UNITS_TEXT": "%", "OBSERVED_RESULT": -8.2}
{"MOLECULE": "Cc1cncc(C(=O)N2CCC(Cn3cc(-c4ccsc4)nn3)CC2)c1", "UNITS_TEXT": "%", "OBSERVED_RESULT": -16.9}
{"MOLECULE": "CC(=O)c1cn(CC(=O)N2CCCC(O)(CO)C2)c2ccccc12 (centres undefined)", "UNITS_TEXT": "%", "OBSERVED_RESULT": 28}
{"MOLECULE": "COc1ccc(F)c(NCc2ccc(C(=O)N(C)C)[nH]2)c1", "UNITS_TEXT": "%", "OBSERVED_RESULT": 15.8}
{"MOLECULE": "COc1cc(OC)cc(C(=O)NCC(c2cccn2C)N2CCCC2)c1 (centres undefined)", "UNITS_TEXT": "%", "OBSERVED_RESULT": 30.6}
{"MOLECULE": "Cn1cccc1C(=O)NCc1cn2c(n1)CN(c1ncccn1)CC2", "UNITS_TEXT": "%", "OBSERVED_RESULT": -12.8}
{"MOLECULE": "NC(=O)CCOc1ccc(NC(=O)c2ccccc2OC(F)F)cc1", "UNITS_TEXT": "%", "OBSERVED_RESULT": 3.32}
{"MOLECULE": "NC(=O)NC(=O)CNC1(c2ccc(Cl)cc2)CCCC1", "UNITS_TEXT": "%", "OBSERVED_RESULT": -17.2}
{"MOLECULE": "CCS(=O)(=O)N1CCc2nc(N3CCCC3)nc(N(C)C)c2CC1", "UNITS_TEXT": "%", "OBSERVED_RESULT": 24.9}
{"MOLECULE": "CN1CCCC[C@@H]2[C@H]1[C@@H](c1ccccc1)CCN2C(=O)c1cnccn1", "UNITS_TEXT": "%", "OBSERVED_RESULT": 1.76}
{"MOLECULE": "CCOc1ncccc1C(=O)N1CCCC1c1c(C)nn(C)c1OC (centres undefined)", "UNITS_TEXT": "%", "OBSERVED_RESULT": 1.14}
{"MOLECULE": "CCCN1CCC2(C1)c1ccccc1S(=O)(=O)N2Cc1ccc(F)cc1 (centres undefined)", "UNITS_TEXT": "%", "OBSERVED_RESULT": -1.79}
{"MOLECULE": "CC(=O)N1CCc2[nH]c(=O)ccc2C1", "UNITS_TEXT": "%", "OBSERVED_RESULT": -6.79}
{"MOLECULE": "c1ccc(CCCN2CCN(CCn3cncn3)CC2)cc1", "UNITS_TEXT": "%", "OBSERVED_RESULT": -3.65}
{"MOLECULE": "CS(=O)(=O)c1cn[nH]c1C1CCCCN1C(=O)c1cncs1 (centres undefined)", "UNITS_TEXT": "%", "OBSERVED_RESULT": -6.78}
{"MOLECULE": "CCN(CC)CCNC(=O)c1cnc(-c2ccccc2)nc1", "UNITS_TEXT": "%", "OBSERVED_RESULT": -7.78}
{"MOLECULE": "CN(Cc1cscn1)C1CCCN(Cc2noc(C3CC3)n2)C1 (centres undefined)", "UNITS_TEXT": "%", "OBSERVED_RESULT": 22.4}
{"MOLECULE": "CCC(=O)Nc1cccc(OCC(=O)N[C@@H]2C[C@H]3CC[C@@H]2C3)c1", "UNITS_TEXT": "%", "OBSERVED_RESULT": -22.4}

###

Assay: Human HepG2 cell viability assay in 384 well format
Format: toxicity, cell-based
Design: dose 125 nL, time 70.5 hour; concentration not given beside the values
Details: HepG2 cells, read-out: Inhibition

{"COMPOUND": "CN(C)C[C@@H]1OC[C@H]2CN(Cc3ccoc3)CC[C@H]21", "UNITS_TEXT": "%", "cytotoxicity at 70.5 h": -0.512}
{"COMPOUND": "Cc1ccc(O)c(CNc2cccc(CN3CCSCC3)c2)n1", "UNITS_TEXT": "%", "cytotoxicity at 70.5 h": 1.03}
{"COMPOUND": "Cc1nc(CC(=O)NCc2csc(N3CCCC3)n2)cs1", "UNITS_TEXT": "%", "cytotoxicity at 70.5 h": -4.47}
{"COMPOUND": "Cc1nnc(C2Cc3ccccc3CN2Cc2ncc(Cl)n2C)o1 (configuration not stated)", "UNITS_TEXT": "%", "cytotoxicity at 70.5 h": -13.3}
{"COMPOUND": "NC(=O)C1CCN(C(=O)NCc2ccccc2-n2cccn2)CC1", "UNITS_TEXT": "%", "cytotoxicity at 70.5 h": -4.82}
{"COMPOUND": "O=C(NCC1CCS(=O)(=O)C1)c1sccc1-c1ccc(F)cc1 (configuration not stated)", "UNITS_TEXT": "%", "cytotoxicity at 70.5 h": 8.07}
{"COMPOUND": "CCS(=O)(=O)N1C[C@H]2CCC[C@@]2(COc2ccccn2)C1", "UNITS_TEXT": "%", "cytotoxicity at 70.5 h": -21.9}

###

Experiment: Human HepG2 cell viability assay in 384 well format
Assay type: toxicity, cell-based
Set-up: dose 125 nL, time 70.5 hour; concentration not given beside the values
Details: HepG2 cells, read-out: Inhibition
TEST_READOUT: cytotoxicity at 70.5 h (%)

{"MOLECULE": "O=C(Cc1ccon1)N(CCC(F)(F)F)C1CCCC1", "TEST_READOUT": "cytotoxicity at 70.5 h", "OBSERVED_RESULT": -3.19}
{"MOLECULE": "CCNC(=O)[C@@H]1C[C@@H](NC(=O)c2ccc(C#N)cc2)CN1CCCSC", "TEST_READOUT": "cytotoxicity at 70.5 h", "OBSERVED_RESULT": 17.5}
{"MOLECULE": "CCN1CCN(C(=O)c2cc(-c3cccs3)cs2)CC1", "TEST_READOUT": "cytotoxicity at 70.5 h", "OBSERVED_RESULT": 15.8}
{"MOLECULE": "CC(C)(C)NC(=O)CNC(=O)Nc1cc(-c2ccccc2)ns1", "TEST_READOUT": "cytotoxicity at 70.5 h", "OBSERVED_RESULT": -14.8}
{"MOLECULE": "Cc1nnn2c1COCC(CNCc1nccs1)C2 (stereo not drawn)", "TEST_READOUT": "cytotoxicity at 70.5 h", "OBSERVED_RESULT": -10.3}
{"MOLECULE": "N#CC1C(=O)Nc2c(cnn2C2CCCC2)C12CCCC2 (stereo not drawn)", "TEST_READOUT": "cytotoxicity at 70.5 h", "OBSERVED_RESULT": -2.82}
{"MOLECULE": "Cc1cccc(NC2CCN(C(=O)Nc3cc(C)on3)CC2)n1", "TEST_READOUT": "cytotoxicity at 70.5 h", "OBSERVED_RESULT": -14.3}
{"MOLECULE": "O=C(NCc1cnc2n1CCN(Cc1nccs1)CC2)C1CCC1", "TEST_READOUT": "cytotoxicity at 70.5 h", "OBSERVED_RESULT": -2.78}
{"MOLECULE": "CN1CCCC(N2CCN(c3nc4ccccn4c3C#N)CC2)C1 (stereo not drawn)", "TEST_READOUT": "cytotoxicity at 70.5 h", "OBSERVED_RESULT": 11.1}
{"MOLECULE": "CC(=O)Nc1nc(-c2ccc(C)c(C)c2)c[nH]1", "TEST_READOUT": "cytotoxicity at 70.5 h", "OBSERVED_RESULT": 0.35}
{"MOLECULE": "Cc1ccc(OCCN2CCN(Cc3cnn(CCO)c3)CC2)cc1", "TEST_READOUT": "cytotoxicity at 70.5 h", "OBSERVED_RESULT": -0.0785}
{"MOLECULE": "CCOC(=O)N1[C@@H](c2ccco2)[C@@H](C(=O)O)C[C@]12CCCCNC2=O", "TEST_READOUT": "cytotoxicity at 70.5 h", "OBSERVED_RESULT": -7.52}
{"MOLECULE": "N#Cc1ccc(CN2CCNC(=O)C2c2cccs2)cc1 (stereo not drawn)", "TEST_READOUT": "cytotoxicity at 70.5 h", "OBSERVED_RESULT": -3.15}
{"MOLECULE": "CO[C@@H]1CCN(Cc2nccn2C)[C@H]1Cc1cccnc1", "TEST_READOUT": "cytotoxicity at 70.5 h", "OBSERVED_RESULT": 12.4}
{"MOLECULE": "Cc1cc2n(n1)CC(CNCc1cc(C)on1)CN2 (stereo not drawn)", "TEST_READOUT": "cytotoxicity at 70.5 h", "OBSERVED_RESULT": -9.53}
{"MOLECULE": "Cc1cc(C)n2nc(C(=O)N3CCCC4(CCOC4)C3)cc2n1 (stereo not drawn)", "TEST_READOUT": "cytotoxicity at 70.5 h", "OBSERVED_RESULT": -10.3}
{"MOLECULE": "CC(CCS(C)(=O)=O)NC(=O)NCc1ccc2ccccc2c1 (stereo not drawn)", "TEST_READOUT": "cytotoxicity at 70.5 h", "OBSERVED_RESULT": 5.09}
{"MOLECULE": "Cc1cnn(CC(C)NCc2cc(C#N)ccc2F)c1 (stereo not drawn)", "TEST_READOUT": "cytotoxicity at 70.5 h", "OBSERVED_RESULT": -5.57}
